Tested on: 388556-164-R-J1-PDC complex spheroid viability
Assay: Anticancer human tumor 388556-164-R-J1-PDC patient-derived colon adenocarcinoma cell line growth inhibition [RAS]
Conditions: second compound 3.16 µM; first compound 10 µM; active compounds read low
Consider the following compounds and their measured viability, T/C readings.

Some solved entries appear below for comparison.
{"columns": ["compound", "viability, T/C"],
 "data": [
  ["CC(=O)OC12COC1CC(O)C1(C)C(=O)C(O)C3=C(C)C(OC(=O)C(O)C(NC(=O)OC(C)(C)C)c4ccccc4)CC(O)(C(OC(=O)c4ccccc4)C21)C3(C)C (stereo not drawn) + C#Cc1c(F)ccc2cc(O)cc(-c3ncc4c(N5CC6CCC(C5)N6)nc(OCC56CCCN5CC(F)C6)nc4c3F)c12", "40.2%"],
  ["CC(Nc1ccc2c(c1)OCCn1cc(N3C(=O)OCC3C(F)F)nc1-2)C(N)=O (stereo not drawn) + C#Cc1c(F)ccc2cc(O)cc(-c3ncc4c(N5CC6CCC(C5)N6)nc(OCC56CCCN5CC(F)C6)nc4c3F)c12", "38.4%"],
  ["C[C@@H](NC(=O)c1ncnc(N)c1Cl)c1ncc(C(=O)Nc2cc(C(F)(F)F)c(Cl)cn2)s1 + C#Cc1c(F)ccc2cc(O)cc(-c3ncc4c(N5CC6CCC(C5)N6)nc(OCC56CCCN5CC(F)C6)nc4c3F)c12", "70%"],
  ["Cc1nc(N2CCC3(CC2)COC(C)C3N)c(CO)nc1Sc1ccnc(N)c1Cl (stereo not drawn) + C#Cc1c(F)ccc2cc(O)cc(-c3ncc4c(N5CC6CCC(C5)N6)nc(OCC56CCCN5CC(F)C6)nc4c3F)c12", "24%"],
  ["CCC(CC)c1cc(NC2CCC(N)C2)n2nccc2n1 (stereo not drawn) + C#Cc1c(F)ccc2cc(O)cc(-c3ncc4c(N5CC6CCC(C5)N6)nc(OCC56CCCN5CC(F)C6)nc4c3F)c12", "20.8%"]
]}

Q: Item: CC(C)NCC(C(=O)N1CCN(c2ncnc3c2C(C)CC3O)CC1)c1ccc(Cl)cc1 (stereo not drawn) + C#Cc1c(F)ccc2cc(O)cc(-c3ncc4c(N5CC6CCC(C5)N6)nc(OCC56CCCN5CC(F)C6)nc4c3F)c12 Test system: 388556-164-R-J1-PDC complex spheroid viability Read-out: viability, T/C Value: ?
Result: 59.4%

Q: Same question for CC1(O)CCCC1n1c(=O)c(C(F)F)cc2cnc(NC3CCN(S(C)(=O)=O)CC3)nc21 (stereo not drawn) + C#Cc1c(F)ccc2cc(O)cc(-c3ncc4c(N5CC6CCC(C5)N6)nc(OCC56CCCN5CC(F)C6)nc4c3F)c12 please.
Result: 46.6%

Q: Same question for NC1c2ccccc2OC12CCN(c1cnc3c(N4CCCc5ncccc54)n[nH]c3n1)CC2 (stereo not drawn) + C#Cc1c(F)ccc2cc(O)cc(-c3ncc4c(N5CC6CCC(C5)N6)nc(OCC56CCCN5CC(F)C6)nc4c3F)c12 please.
Result: 18.8%

---

Consider the following compounds and their measured viability, T/C readings.
Tested on: 388556-164-R-J1-PDC complex spheroid viability
Assay: Anticancer human tumor 388556-164-R-J1-PDC cell line growth inhibition [RAS];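 note: spheroids exposed to compound for 7 days before readout; 100% = DMSO vehicle control luminescence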
Settings: second compound 0.1 µM; first compound 0.0316 µM; active compounds read low
Report as a plain number; the unit % is understood.

{"columns": ["compound", "experimental.result"],
 "data": [
  ["CCC(CC)c1cc(NC2CCC(N)C2)n2nccc2n1 (stereo not drawn) + C=CC(=O)N1CCN(c2nc(OCC3CCCN3C)nc3c(F)c(-c4nc(N)cc(C)c4C(F)(F)F)c(Cl)cc23)C(C)C1", 97.5],
  ["CCC(CC)c1cc(NC2CCC(N)C2)n2nccc2n1 (stereo not drawn) + C#Cc1c(F)ccc2cc(O)cc(-c3ncc4c(N5CC6CCC(C5)N6)nc(OCC56CCCN5CC(F)C6)nc4c3F)c12", 98.2]
]}

In the following, a different compound is considered.
Q: Data request, read-out viability, T/C, for Nc1ccn(C2OC(CO)C(O)C2(F)F)c(=O)n1 (stereo not drawn) + C#Cc1c(F)ccc2cc(O)cc(-c3ncc4c(N5CC6CCC(C5)N6)nc(OCC56CCCN5CC(F)C6)nc4c3F)c12
Result: 80.4

---

System: 388556-164-R-J1-PDC complex spheroid viability
Assay: Anticancer human tumor 388556-164-R-J1-PDC cell line growth inhibition [RAS];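 note: spheroids exposed to compound for 7 days before readout; 100% = DMSO vehicle control luminescence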
Conditions: second compound 0.01 µM; first compound 0.01 µM; active compounds read low
measured.parameter: viability, T/C

Some solved entries appear below for comparison.
{"columns": ["compound", "study.system", "viability, T/C"],
 "data": [
  ["C=CC(=O)Nc1cc(Nc2nccc(-c3cn(C)c4ccccc34)n2)c(OC)cc1N(C)CCN(C)C + C=CC(=O)N1CCN(c2nc(OCC3CCCN3C)nc3c(F)c(-c4nc(N)cc(C)c4C(F)(F)F)c(Cl)cc23)C(C)C1", "388556-164-R-J1-PDC complex spheroid viability", "103%"],
  ["CC(C)n1nc(-c2ccc3oc(N)nc3c2)c2c(N)ncnc21 + C=CC(=O)N1CCN(c2nc(OCC3CCCN3C)nc3c(F)c(-c4nc(N)cc(C)c4C(F)(F)F)c(Cl)cc23)C(C)C1", "388556-164-R-J1-PDC complex spheroid viability", "76.7%"],
  ["O=C(c1ccc(F)c(F)c1Nc1ccc(I)cc1F)N1CC(O)([C@@H]2CCCCN2)C1 + C=CC(=O)N1CCN(c2nc(OCC3CCCN3C)nc3c(F)c(-c4nc(N)cc(C)c4C(F)(F)F)c(Cl)cc23)C(C)C1", "388556-164-R-J1-PDC complex spheroid viability", "90.3%"]
]}

Q: Data request, read-out viability, T/C, for CCN1CCN(Cc2ccc(Nc3ncc(F)c(-c4cc(F)c5nc(C)n(C(C)C)c5c4)n3)nc2)CC1 + C=CC(=O)N1CCN(c2nc(OCC3CCCN3C)nc3c(F)c(-c4nc(N)cc(C)c4C(F)(F)F)c(Cl)cc23)C(C)C1
Result: 101%

Q: Same question for Nc1ccn(C2OC(CO)C(O)C2(F)F)c(=O)n1 (stereo not given) + C=CC(=O)N1CCN(c2nc(OCC3CCCN3C)nc3c(F)c(-c4nc(N)cc(C)c4C(F)(F)F)c(Cl)cc23)C(C)C1 please.
Result: 89.6%

---

Consider the following molecules and their measured viability, T/C readings.
Test system: 388556-164-R-J1-PDC complex spheroid viability
Experiment: Anticancer human tumor 388556-164-R-J1-PDC cell line growth inhibition [RAS];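 note: spheroids exposed to compound for 7 days before readout; 100% = DMSO vehicle control luminescence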
Conditions: second compound 0.0316 µM; first compound 3.16 µM; active compounds read low

Some solved entries appear below for comparison.
{"columns": ["molecule", "viability, T/C"],
 "data": [
  ["CC(=O)OC12COC1CC(O)C1(C)C(=O)C(O)C3=C(C)C(OC(=O)C(O)C(NC(=O)OC(C)(C)C)c4ccccc4)CC(O)(C(OC(=O)c4ccccc4)C21)C3(C)C (stereo not given) + C#Cc1c(F)ccc2cc(O)cc(-c3ncc4c(N5CC6CCC(C5)N6)nc(OCC56CCCN5CC(F)C6)nc4c3F)c12", "74.5%"],
  ["Cc1nc(N2CCC3(CC2)COC(C)C3N)c(CO)nc1Sc1ccnc(N)c1Cl (stereo not given) + C#Cc1c(F)ccc2cc(O)cc(-c3ncc4c(N5CC6CCC(C5)N6)nc(OCC56CCCN5CC(F)C6)nc4c3F)c12", "51%"],
  ["CC(C)NCC(C(=O)N1CCN(c2ncnc3c2C(C)CC3O)CC1)c1ccc(Cl)cc1 (stereo not given) + C=CC(=O)N1CCN(c2nc(OCC3CCCN3C)nc3c(F)c(-c4nc(N)cc(C)c4C(F)(F)F)c(Cl)cc23)C(C)C1", "105%"]
]}

Q: Data request, read-out viability, T/C, for Cc1nc(N2CCC3(CC2)COC(C)C3N)c(CO)nc1Sc1ccnc(N)c1Cl (stereo not given) + C=CC(=O)N1CCN(c2nc(OCC3CCCN3C)nc3c(F)c(-c4nc(N)cc(C)c4C(F)(F)F)c(Cl)cc23)C(C)C1
Result: 55.3%

Q: Same question for CCC(CC)c1cc(NC2CCC(N)C2)n2nccc2n1 (stereo not given) + C#Cc1c(F)ccc2cc(O)cc(-c3ncc4c(N5CC6CCC(C5)N6)nc(OCC56CCCN5CC(F)C6)nc4c3F)c12 please.
Result: 50.7%

---

System: 388556-164-R-J1-PDC complex spheroid viability
Test: Anticancer human tumor 388556-164-R-J1-PDC cell line growth inhibition [RAS];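 note: spheroids exposed to compound for 7 days before readout; 100% = DMSO vehicle control luminescence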
Conditions: second compound 0.003 µM; first compound 0.1 µM; active compounds read low
Consider the following compounds and their measured viability, T/C readings.
Report as a plain number; the unit % is understood.

{"columns": ["compound", "measured.parameter", "unit.descriptor", "experimental.result"],
 "data": [
  ["Nc1ccn(C2OC(CO)C(O)C2(F)F)c(=O)n1 (stereo not drawn) + CCn1c(-c2cc(N3CCN(C)CC3)cnc2C(C)OC)c2c3cc(ccc31)-c1csc(n1)CC(NC(=O)C1CC1C)C(=O)N1CCCC(N1)C(=O)OCC(C)(C)C2", "viability, T/C", "%", 65],
  ["C=CC(=O)N1CCN(c2nc(OCC3CCCN3C)nc3c(F)c(-c4nc(N)cc(C)c4C(F)(F)F)c(Cl)cc23)C(C)C1 (stereo not drawn) + CCn1c(-c2cc(N3CCN(C)CC3)cnc2C(C)OC)c2c3cc(ccc31)-c1csc(n1)CC(NC(=O)C1CC1C)C(=O)N1CCCC(N1)C(=O)OCC(C)(C)C2", "viability, T/C", "%", 86.9],
  ["CC(C)NCC(C(=O)N1CCN(c2ncnc3c2C(C)CC3O)CC1)c1ccc(Cl)cc1 (stereo not drawn) + CCn1c(-c2cc(N3CCN(C)CC3)cnc2C(C)OC)c2c3cc(ccc31)-c1csc(n1)CC(NC(=O)C1CC1C)C(=O)N1CCCC(N1)C(=O)OCC(C)(C)C2", "viability, T/C", "%", 96.5],
  ["NC1c2ccccc2OC12CCN(c1cnc3c(N4CCCc5ncccc54)n[nH]c3n1)CC2 (stereo not drawn) + CCn1c(-c2cccnc2C(C)OC)c2c3cc(ccc31)N1CCOC(CC(NC(=O)C(C(C)C)N(C)C(=O)C3(F)CCN(C(=O)C#CC(C)(C)N(C)C)CC3)C(=O)N3CCCC(N3)C(=O)OCC(C)(C)C2)C1", "viability, T/C", "%", 56.3],
  ["Cc1nc(N2CCC3(CC2)COC(C)C3N)c(CO)nc1Sc1ccnc(N)c1Cl (stereo not drawn) + CCn1c(-c2cc(N3CCN(C)CC3)cnc2C(C)OC)c2c3cc(ccc31)-c1csc(n1)CC(NC(=O)C1CC1C)C(=O)N1CCCC(N1)C(=O)OCC(C)(C)C2", "viability, T/C", "%", 70.3],
  ["CCN1CCN(Cc2ccc(Nc3ncc(F)c(-c4cc(F)c5nc(C)n(C(C)C)c5c4)n3)nc2)CC1 + CCn1c(-c2cc(N3CCN(C)CC3)cnc2C(C)OC)c2c3cc(ccc31)-c1csc(n1)CC(NC(=O)C1CC1C)C(=O)N1CCCC(N1)C(=O)OCC(C)(C)C2", "viability, T/C", "%", 71.3],
  ["CC1(O)CCCC1n1c(=O)c(C(F)F)cc2cnc(NC3CCN(S(C)(=O)=O)CC3)nc21 (stereo not drawn) + CCn1c(-c2cc(N3CCN(C)CC3)cnc2C(C)OC)c2c3cc(ccc31)-c1csc(n1)CC(NC(=O)C1CC1C)C(=O)N1CCCC(N1)C(=O)OCC(C)(C)C2", "viability, T/C", "%", 91.7]
]}

In the following, a different compound is considered.
Q: Data request, read-out viability, T/C, for CCC(CC)c1cc(NC2CCC(N)C2)n2nccc2n1 (stereo not drawn) + CCn1c(-c2cc(N3CCN(C)CC3)cnc2C(C)OC)c2c3cc(ccc31)-c1csc(n1)CC(NC(=O)C1CC1C)C(=O)N1CCCC(N1)C(=O)OCC(C)(C)C2
Result: 85.2
